Each entry below carries its recorded log10 of solubility.
- Assay text: Aqueous solubility of the compound in phosphate buffered saline at pH 7.4
- Assay type: physicochemical
- Condition context: buffer
A value of 2 here means solubility of 100 in µM, since values are log10.

Past entries and their recorded results:
O=Cc1nc2ccccc2n1Cc1ccc(Cl)cc1Cl : 1.18
COC(=O)c1ccc2c(c1)C(C)(C)C(/C=C/c1ccc(OC)cc1)=[N+]2C : -1.00
CCS(=O)(=O)c1oc(-c2cccs2)nc1S(=O)(=O)c1ccccc1 : 1.70
COC(=O)c1ccc2c(c1)C(C)(C)C(/C=C/c1ccc(O)cc1)=[N+]2C : 2.34

Give the measured log10 of solubility of "COc1ccc(OC)c(S(=O)(=O)ON2C(=O)c3ccccc3C2=O)c1" .
2.66

Give the measured log10 of solubility of Cc1[nH]c2ccccc2c1C(Nc1ccccc1)c1ccc(CCCO)cc1 (stereo unspecified) .
2.70

Give the measured log10 of solubility of "COCC(=O)Oc1c(Sc2ccc(Cl)cc2)c(C)nn1-c1ccccc1" .
2.69

Give the measured log10 of solubility of "CCc1ccc(S(=O)(=O)ON2C(=O)c3ccccc3C2=O)cc1" .
2.66
